Cited source: ChEMBL document CHEMBL1141954

Please provide measured pIC50 for the entries that follow.
# Assayed system: Glutamate NMDA receptor
# Assay protocol: Inhibition of NMDA-evoked intracellular calcium increase in rat cortical cells
Units for pIC50: none; it is -log10 of a concentration expressed in mol/L.

Exercise: // pIC50 lookup, key: "COc1cccc(OC)c1C/N=C(\N)c1cc2cc(F)ccc2[nH]1"
Solution: 7.77

Exercise: Next: "N=C(NCc1c(F)cccc1F)c1cc2ccccc2[nH]1"
Solution: 6.84

Exercise: Now the compound "Cc1ccccc1C/N=C(\N)c1cc2ccccc2[nH]1"
Solution: 6.77

Exercise: Now consider "COc1ccc2[nH]c(C(=N)NCc3ccccc3OC)cc2c1" .
Solution: 7.72

Exercise: What do you have for "COc1ccccc1C/N=C(\N)c1cc2cc(Cl)ccc2[nH]1" ?
Solution: 7.19

Exercise: How about "COc1cccc(OC)c1C/N=C(\N)c1cc2ccccc2[nH]1" ?
Solution: 8.27

Exercise: Now the compound "COc1cccc(OC)c1C/N=C(\N)c1cc2cc(Cl)ccc2[nH]1"
Solution: 7.16

Exercise: Here is the next compound: "COc1ccccc1CNC(=N)/C=C/c1ccccc1"
Solution: 8.18

Exercise: One more compound: "COc1ccccc1C/N=C(\N)c1cc2ccccc2[nH]1.Cl"
Solution: 7.46

Exercise: Also "N=C(NCc1ccccc1F)c1cc2ccccc2[nH]1" , if possible.
Solution: 6.63

Exercise: What do you have for "N=C(NCc1cc(Cl)cc(Cl)c1)c1cc2ccccc2[nH]1" ?
Solution: 6.80

Exercise: What about this compound? "COc1ccc2[nH]c(C(=N)NCc3c(OC)cccc3OC)cc2c1"
Solution: 7.59

Exercise: Also need "COc1ccccc1C/N=C(\N)c1cc2cc(F)ccc2[nH]1" , thanks.
Solution: 7.48
